Data provenance is ChEMBL document CHEMBL1201862.

# tested-target: Sentrin-specific protease 1 (Homo sapiens)
# Sequence (Q9P0U3 whole entry): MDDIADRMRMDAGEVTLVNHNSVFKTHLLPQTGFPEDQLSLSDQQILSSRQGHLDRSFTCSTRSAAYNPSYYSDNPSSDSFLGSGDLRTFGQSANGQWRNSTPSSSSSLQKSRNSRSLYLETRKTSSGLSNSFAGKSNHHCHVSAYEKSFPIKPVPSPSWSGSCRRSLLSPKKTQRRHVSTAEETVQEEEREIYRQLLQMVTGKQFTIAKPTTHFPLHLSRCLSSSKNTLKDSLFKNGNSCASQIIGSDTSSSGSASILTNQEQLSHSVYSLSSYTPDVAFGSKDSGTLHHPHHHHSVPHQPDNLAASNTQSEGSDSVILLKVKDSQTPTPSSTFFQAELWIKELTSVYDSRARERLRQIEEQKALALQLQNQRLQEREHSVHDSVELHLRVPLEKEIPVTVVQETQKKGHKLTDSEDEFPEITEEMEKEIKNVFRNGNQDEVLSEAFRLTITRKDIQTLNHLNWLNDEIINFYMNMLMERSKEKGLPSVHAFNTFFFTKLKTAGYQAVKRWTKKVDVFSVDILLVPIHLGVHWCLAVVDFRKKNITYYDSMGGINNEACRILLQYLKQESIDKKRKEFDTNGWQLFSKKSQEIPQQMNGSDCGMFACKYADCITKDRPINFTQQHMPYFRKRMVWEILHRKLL
# experiment-summary: potency of human SENP1 inhibitors, dose response, biochemical, kinetic FRET (AID 651697)
# Assay type: functional
# condition-parameters: read-out: IC50_Mean
Active and inactive are the calls of the source.
Outcome codes: active, inactive

[
  {
    "cpd-smiles": "Cc1cccc(-n2c(SCc3cc(=O)n4ccsc4n3)nc3ccccc32)c1",
    "tested-target": "Sentrin-specific protease 1 (Homo sapiens)",
    "qualitative-label": "inactive"
  },
  {
    "cpd-smiles": "c1ccc(NC2=Nc3cccc4cccc2c34)cc1",
    "tested-target": "Sentrin-specific protease 1 (Homo sapiens)",
    "qualitative-label": "inactive"
  },
  {
    "cpd-smiles": "COc1ccc(NC2=Nc3cccc4cccc2c34)cc1",
    "tested-target": "Sentrin-specific protease 1 (Homo sapiens)",
    "qualitative-label": "inactive"
  },
  {
    "cpd-smiles": "COc1cc(S(=O)(=O)Nc2ccc3c(c2)C(=O)N(C)C3=O)ccc1NC(C)=O",
    "tested-target": "Sentrin-specific protease 1 (Homo sapiens)",
    "qualitative-label": "active"
  },
  {
    "cpd-smiles": "c1ccc(CN2CCN(C3=Nc4cccc5cccc3c45)CC2)cc1",
    "tested-target": "Sentrin-specific protease 1 (Homo sapiens)",
    "qualitative-label": "active"
  }
]

====

# tested-target: UniProt:P29990
# Sequence (P29990 2492-3391 limits assumed): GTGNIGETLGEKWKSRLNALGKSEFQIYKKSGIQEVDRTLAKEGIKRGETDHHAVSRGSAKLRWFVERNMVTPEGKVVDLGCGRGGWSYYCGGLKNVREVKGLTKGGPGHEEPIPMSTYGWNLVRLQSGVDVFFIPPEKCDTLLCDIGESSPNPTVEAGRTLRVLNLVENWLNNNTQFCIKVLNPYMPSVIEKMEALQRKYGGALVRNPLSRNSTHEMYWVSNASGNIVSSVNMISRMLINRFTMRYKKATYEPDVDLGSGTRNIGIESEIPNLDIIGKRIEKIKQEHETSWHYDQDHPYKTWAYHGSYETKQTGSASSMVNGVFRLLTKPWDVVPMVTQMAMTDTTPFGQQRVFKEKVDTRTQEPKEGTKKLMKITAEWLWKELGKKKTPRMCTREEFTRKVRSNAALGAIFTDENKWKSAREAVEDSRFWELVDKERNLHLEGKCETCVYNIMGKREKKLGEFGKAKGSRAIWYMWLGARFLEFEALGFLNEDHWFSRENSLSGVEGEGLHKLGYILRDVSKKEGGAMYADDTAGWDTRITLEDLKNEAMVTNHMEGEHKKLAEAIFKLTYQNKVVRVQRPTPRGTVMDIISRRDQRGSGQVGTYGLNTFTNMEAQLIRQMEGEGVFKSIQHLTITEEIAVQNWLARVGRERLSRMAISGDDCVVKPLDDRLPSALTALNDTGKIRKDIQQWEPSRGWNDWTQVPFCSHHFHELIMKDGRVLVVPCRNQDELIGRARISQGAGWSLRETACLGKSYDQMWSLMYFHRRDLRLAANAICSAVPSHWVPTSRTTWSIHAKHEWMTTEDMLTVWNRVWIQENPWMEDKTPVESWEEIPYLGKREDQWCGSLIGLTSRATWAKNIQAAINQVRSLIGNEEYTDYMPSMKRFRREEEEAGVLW
# experiment-summary: Dengue-2 NS5 methyltransferase inhibitors, primary screen, biochemical, confirmation dose response (AID 588689)
# Assay type: functional
Active and inactive are the calls of the source.
readout-kind: IC50

[
  {
    "cpd-smiles": "O=C1NC(=O)N(c2ccccc2)C(=O)/C1=C\\c1ccccc1[N+](=O)[O-]",
    "result": "38.5 µM (active)"
  },
  {
    "cpd-smiles": "CC1(C)CC[C@]2(C(=O)n3ccnc3)CC[C@]3(C)[C@H](C(=O)C=C4[C@@]5(C)C=C(C#N)C(=O)C(C)(C)[C@@H]5CC[C@]43C)[C@@H]2C1",
    "result": "38.2 µM (active)"
  },
  {
    "cpd-smiles": "C=CCc1cc(C=C2C(=O)NC(=O)NC2=O)cc(OC)c1OCc1ccc(C(=O)O)cc1",
    "result": "29.1 µM (active)"
  },
  {
    "cpd-smiles": "CC(/C=C1\\SC(=S)N(NS(=O)(=O)c2ccccc2)C1=O)=C\\c1ccccc1",
    "result": "29.3 µM (active)"
  }
]

====

# tested-target: Melanocortin receptor 4 (Homo sapiens);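 further: Cell-based assay with luminescence read-out, confirmatory dose-response testing for agonist activity of biased ligands at MC4R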;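 further: human U2OS cells with tagged receptor and beta-arrestin; potency of agonists that increase receptor coupling to beta-arrestin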
# Sequence (P32245 whole entry): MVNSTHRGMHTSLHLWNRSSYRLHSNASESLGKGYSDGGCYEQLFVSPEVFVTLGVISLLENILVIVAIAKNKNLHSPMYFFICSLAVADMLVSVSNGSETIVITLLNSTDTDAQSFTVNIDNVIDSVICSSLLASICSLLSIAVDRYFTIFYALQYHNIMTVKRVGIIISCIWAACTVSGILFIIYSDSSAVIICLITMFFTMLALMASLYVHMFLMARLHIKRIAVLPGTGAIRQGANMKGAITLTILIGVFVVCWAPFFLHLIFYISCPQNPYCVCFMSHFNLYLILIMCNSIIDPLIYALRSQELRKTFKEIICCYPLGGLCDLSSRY
# Assay type: functional, cell-based
Activity calls are given as the source filed them.

[
  {
    "compound": "CCN1/C(=C/c2ccc3cc(C)ccc3[n+]2CC)Sc2cc(C)c(C)cc21",
    "EC50": "> 3.3 µM (active)"
  },
  {
    "compound": "O=C(c1ccc(COc2ccc(Br)cc2)o1)N1N=C(C(F)F)CC1(O)C(F)F (configuration not stated)",
    "EC50": "> 89.2 µM (inactive)"
  },
  {
    "compound": "CC1CCC(C(C)C)C(OC(=O)C[n+]2cc(-c3ccc(Cl)cc3)n3c2CCCCC3)C1 (configuration not stated)",
    "EC50": "> 9.91 µM (active)"
  },
  {
    "compound": "Cc1cccc(NC(=S)NC(=O)C(c2ccccc2)c2ccccc2)n1",
    "EC50": "> 89.2 µM (inactive)"
  },
  {
    "compound": "Cc1cccnc1C(c1ccc(F)cc1)N(C)C(=O)C1CCN(CCOc2ccc(Cl)cc2Cl)CC1 (configuration not stated)",
    "EC50": "> 89.2 µM (inactive)"
  },
  {
    "compound": "COc1ccc(-c2cc(NC(C)=O)c3ncc(-c4ccc(OC)c(OC)c4)n3c2)cc1OC",
    "EC50": "> 89.2 µM (inactive)"
  },
  {
    "compound": "C1COCCO1.Cc1cc(C)c2nc(Nc3nc(O)cc(-c4ccccc4)n3)nc(C)c2c1",
    "EC50": "> 89.2 µM (inactive)"
  }
]
